protocol_summary: Stability in liver microsomes, mouse
Format: in vitro ADME
measurement_setup: liver microsomes, read-out: Stability in liver microsomes (t1/2, min): Mouse
quantity_kind: half-life (min)
Just the number please, in min, no unit attached.

For the molecule "CNC(=O)[C@@]12C[C@@H]1[C@@H](n1cnc3c(NC)nc(C#Cc4ccc(Cl)s4)nc31)[C@H](O)[C@@H]2O" , what half-life is on record?
143

* * *

tgt: hA1AR (Homo sapiens (Human), UniProt P30542)
Sequence (P30542 whole entry): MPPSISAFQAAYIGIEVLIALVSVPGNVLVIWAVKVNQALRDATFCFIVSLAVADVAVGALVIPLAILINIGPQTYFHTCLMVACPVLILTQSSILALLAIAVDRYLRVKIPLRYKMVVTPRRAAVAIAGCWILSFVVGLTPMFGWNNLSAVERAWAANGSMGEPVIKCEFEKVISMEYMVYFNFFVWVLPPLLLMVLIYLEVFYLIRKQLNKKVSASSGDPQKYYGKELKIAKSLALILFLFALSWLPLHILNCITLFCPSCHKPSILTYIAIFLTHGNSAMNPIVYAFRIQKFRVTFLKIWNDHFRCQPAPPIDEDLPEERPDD
protocol_summary: Radioligand binding at hA1AR, CHO cell membranes, [3H]R-PIA
measurement_setup: inhibition of binding at 10 μM
Quick reference: hA1AR % inhibition of the listed items.
# unit: % | format: bare number

Some molecules with known hA1AR % inhibition results, for comparison:
molecule | hA1AR % inhibition / %
CNC(=O)[C@]12CC1[C@@H](n1cnc3c(NC)nc(-n4cc(-c5ncccn5)nn4)nc31)[C@H](O)C2O (stereo partly shown) | 14
CNC(=O)[C@]12CC1[C@@H](n1cnc3c(NC)nc(-n4cc(-c5cnccn5)nn4)nc31)[C@H](O)C2O (stereo partly shown) | 25

Item: CNC(=O)[C@]12CC1[C@@H](n1cnc3c(NCCc4ccccc4)nc(N=[N+]=[N-])nc31)[C@H](O)C2O (stereo partly shown) Test system: hA1AR (Homo sapiens (Human), UniProt P30542) Read-out: hA1AR % inhibition Value: ?
93
